Would you kindly list viability for each of these molecules?
# Test system: primary BL patient cells (S005)
# TEST NAME: viability relative to DMSO control (fraction); higher = less drug effect (more viable cells)
# CONDITION: 0.08 µM; 48 h
Reply with the value as a number alone.

[in] State the recorded viability for this entry: CC(C)c1cc(C(=O)N2Cc3ccc(CN4CCN(C)CC4)cc3C2)c(O)cc1O
[out] 1.42

[in] State the recorded viability for this entry: CC[C@H](Nc1ncnc2[nH]cnc12)c1nc2cccc(F)c2c(=O)n1-c1ccccc1
[out] 0.982

[in] State the recorded viability for this entry: O=C(Nc1nc2ccccc2n1CCN1CCOCC1)c1cccc([N+](=O)[O-])c1
[out] 1.09

[in] State the recorded viability for this entry: CC(C)c1cc(-c2n[nH]c(=O)n2-c2ccc3c(ccn3C)c2)c(O)cc1O
[out] 0.637

###

Would you kindly list viability for each of these compounds?
# Test system: primary DLBCL patient cells (S049)
# TEST NAME: viability relative to DMSO control (fraction); higher = less drug effect (more viable cells)
# CONDITION: 0.008 µM; 48 h
Reply with the value as a number alone.

[in] State the recorded viability for this entry: Cc1nc(Nc2ncc(C(=O)Nc3c(C)cccc3Cl)s2)cc(N2CCN(CCO)CC2)n1 [Dasatinib]
[out] 0.83

[in] State the recorded viability for this entry: CC#CC(=O)N1CCC[C@H]1c1nc(-c2ccc(C(=O)Nc3ccccn3)cc2)c2c(N)nccn12 [Acalabrutinib (ACP-196)]
[out] 0.892

[in] State the recorded viability for this entry: Nc1ccc2ncnc(NCCc3ccc(Oc4ccccc4)cc3)c2c1 [EVP4593]
[out] 0.89

[in] State the recorded viability for this entry: Nc1cccc2c1CN(C1CCC(=O)NC1=O)C2=O (stereo not given) [Lenalidomide]
[out] 0.962

[in] State the recorded viability for this entry: C/C=C1\NC(=O)[C@H]2CSSCC/C=C/[C@H](CC(=O)N[C@H](C(C)C)C(=O)N2)OC(=O)[C@H](C(C)C)NC1=O [Romidepsin]
[out] 0.026

###

# Test system: primary AML patient cells (S071)
# TEST NAME: viability relative to DMSO control (fraction); higher = less drug effect (more viable cells)
# CONDITION: 0.6 µM; 48 h
Would you kindly list viability for each of these molecules?
Reply with the value as a number alone.

[in] State the recorded viability for this entry: O=C(c1cc(Cc2n[nH]c(=O)c3ccccc23)ccc1F)N1CCN(C(=O)C2CC2)CC1
[out] 1.02

[in] State the recorded viability for this entry: Nc1nc(Cl)nc2c1ncn2[C@@H]1O[C@H](CO)[C@@H](O)[C@@H]1F
[out] 0.219

[in] State the recorded viability for this entry: N#Cc1ccnc(N2C(=O)CC[C@H]2C(=O)N(c2cncc(F)c2)[C@H](C(=O)NC2CC(F)(F)C2)c2ccccc2Cl)c1
[out] 0.922

[in] State the recorded viability for this entry: Nc1nc(=S)c2[nH]cnc2[nH]1
[out] 0.577

###

Would you kindly list viability for each of these compounds?
# System: primary AML patient cells (S025)
# TEST NAME: viability relative to DMSO control (fraction); higher = less drug effect (more viable cells)
# CONDITION: 15 µM; 48 h
Reply with the value as a number alone.

[in] State the recorded viability for this entry: Oc1ccc(/C=C/c2cc(O)cc(O)c2)cc1
[out] 0.758

[in] State the recorded viability for this entry: O=C(O)CSc1cc(NS(=O)(=O)c2ccc(Br)cc2)c2ccccc2c1O
[out] 0.46

[in] State the recorded viability for this entry: N#Cc1ccnc(N2C(=O)CC[C@H]2C(=O)N(c2cncc(F)c2)[C@H](C(=O)NC2CC(F)(F)C2)c2ccccc2Cl)c1
[out] 0.826

[in] State the recorded viability for this entry: CCN1CCN(Cc2ccc(Nc3ncc(F)c(-c4cc(F)c5nc(C)n(C(C)C)c5c4)n3)nc2)CC1
[out] 0.0187

Sourced from the supplement of paper PMC10733146
